These entries and their values trace back to patent US6670446B1.

test system: Staphylococcus aureus SA1199; test: MIC, standard broth micro-dilution assay, SA 1199; format: cell-based
measurement.label: minimal inhibitory concentration (MIC), SA 1199
Just the number, please.

[
  {
    "compound": "CC1OC(OC2c3ccc(c(Cl)c3)Oc3cc4cc(c3OC3OC(CO)C(O)C(O)C3OC3CC(C)(NCc5ccc(-c6ccccc6)cc5)C(O)C(C)O3)Oc3ccc(cc3Cl)C(O)C(NC(=O)c3ccc(-c5ccccc5)cc3)C(=O)NC(CC(N)=O)C(=O)NC4C(=O)NC3C(=O)NC2C(=O)NC(C(=O)O)c2cc(O)cc(O)c2-c2cc3ccc2O)CC(C)(N)C1O (centres unmarked)",
    "data.value": 0.5
  }
]

Looking for the measured minimal inhibitory concentration (MIC), SA 1199 of CC1OC(OC2c3ccc(c(Cl)c3)Oc3cc4cc(c3OC3OC(CO)C(O)C(O)C3OC3CC(C)(NCc5ccc(-c6ccccc6)cc5)C(O)C(C)O3)Oc3ccc(cc3Cl)C(O)C(NC(=O)C3CCCN3C(=O)OC(C)(C)C)C(=O)NC(CC(N)=O)C(=O)NC4C(=O)NC3C(=O)NC2C(=O)NC(C(=O)O)c2cc(O)cc(O)c2-c2cc3ccc2O)CC(C)(N)C1O (centres unmarked) [Example 29] , can you help?
0.125
